These entries and their values trace back to patent US8785499B2.

- target_system: baNadD (Bacillus anthracis)
- Sequence (C3L5T6 whole entry, looked up): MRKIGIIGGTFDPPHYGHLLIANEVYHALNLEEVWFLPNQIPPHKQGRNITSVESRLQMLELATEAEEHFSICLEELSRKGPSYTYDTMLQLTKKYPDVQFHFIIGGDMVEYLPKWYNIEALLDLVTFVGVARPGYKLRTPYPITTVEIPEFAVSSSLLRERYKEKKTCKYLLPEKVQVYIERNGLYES
- procedure_details: biochemical
- Type: biochemical
- condition: read-out: INHIBITION (%) B. anthracis
test_readout: inhibition at 50 µM (%)

test_smiles: O=C1Nc2ccccc2/C1=C/Nc1cccnc1
target_system: baNadD (Bacillus anthracis)
measured_value: 10
//
test_smiles: COC(=O)c1ccccc1N/C=C1\C(=O)Nc2ccccc21
target_system: baNadD (Bacillus anthracis)
measured_value: 0
//
test_smiles: CSc1ccc(N/C=C2\C(=O)Nc3ccccc32)cc1
target_system: baNadD (Bacillus anthracis)
measured_value: 25

---

Measured […]. coli, listed per entry for reference.
- target_system: ecNadD (Escherichia coli (strain K12), UniProt P0A752)
- procedure_details: biochemical
- Type: biochemical
test_readout: […]. coli (%)

compound: O=C(CSC(=O)c1ccccc1)Nc1ccc(Cl)cn1
measured_value: 3
//
compound: O=c1[nH]c2ccc(NC(=S)Nc3ccccc3)cc2[nH]1
measured_value: 11
//
compound: O=C(O)CN(c1ccccc1)S(=O)(=O)c1ccccc1[N+](=O)[O-]
measured_value: 8
//
compound: O=C(N/N=C/c1ccc(Br)cc1)c1[nH]ncc1Br
measured_value: 0
//
compound: CCC(NS(=O)(=O)c1ccc(OC)cc1)C(=O)O (centres unmarked)
measured_value: 0
//
compound: CCOC(=O)c1cc(-c2ccc(C)cc2)[nH]n1
measured_value: 9
//
compound: Clc1ccc(CNc2nc[nH]n2)cc1
measured_value: 0
//
compound: O=C(CSc1nc2ccccc2o1)Nc1ccc(Cl)cn1
measured_value: 12
//
compound: Cn1c(=O)n(C)c2cc(S(=O)(=O)NCCC(=O)O)ccc21
measured_value: 0
//
compound: Cc1ccc(S(=O)(=O)/N=C(\N)c2ccc(F)cc2)cc1
measured_value: 4
//
compound: O=C(O)CSc1nc(=O)cc(-c2ccccc2)[nH]1
measured_value: 3
